// reported FL1 x count per item
- Measurement Target: T1, full length human DLL4 (human, UniProt Q9NR61 27-685)
- T1 construct: whole, on cells; also called native DLL4 expressed in HEK293 cells
- T1 sequence (Q9NR61 27-685): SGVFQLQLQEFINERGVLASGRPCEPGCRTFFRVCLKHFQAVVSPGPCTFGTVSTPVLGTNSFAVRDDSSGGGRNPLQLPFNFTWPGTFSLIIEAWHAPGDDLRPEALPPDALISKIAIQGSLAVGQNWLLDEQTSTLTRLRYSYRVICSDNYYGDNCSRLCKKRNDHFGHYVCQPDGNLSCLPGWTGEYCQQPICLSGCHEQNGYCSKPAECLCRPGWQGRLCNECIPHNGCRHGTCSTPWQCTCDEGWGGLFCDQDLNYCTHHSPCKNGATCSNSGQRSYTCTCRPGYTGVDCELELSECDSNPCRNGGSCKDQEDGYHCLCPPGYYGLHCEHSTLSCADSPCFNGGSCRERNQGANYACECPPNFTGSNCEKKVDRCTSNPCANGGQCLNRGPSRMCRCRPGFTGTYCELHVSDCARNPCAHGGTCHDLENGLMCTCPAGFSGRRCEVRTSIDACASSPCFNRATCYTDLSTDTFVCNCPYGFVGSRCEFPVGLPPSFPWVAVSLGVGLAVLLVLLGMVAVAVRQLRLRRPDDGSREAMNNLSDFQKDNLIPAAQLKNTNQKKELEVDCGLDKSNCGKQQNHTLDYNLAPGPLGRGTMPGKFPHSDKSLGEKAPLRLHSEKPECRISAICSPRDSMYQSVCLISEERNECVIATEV
- Test Details: FMAT, hybridoma supernatant, 293T cells with human DLL4

# Binder, FL1 x count
records = [
    ("1D4 (antibody, IgG4, V domains shown, Fully human XenoMouse antibody; also used where no isotype is printed) VH: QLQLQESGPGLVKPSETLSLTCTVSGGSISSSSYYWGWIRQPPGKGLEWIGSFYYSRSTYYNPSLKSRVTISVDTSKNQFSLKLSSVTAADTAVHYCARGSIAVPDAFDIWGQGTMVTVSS VL: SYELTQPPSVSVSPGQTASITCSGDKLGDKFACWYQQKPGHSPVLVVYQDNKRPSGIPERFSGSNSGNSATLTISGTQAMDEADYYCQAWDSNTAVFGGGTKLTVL", "2.08e+06"),
    ("9G8 (antibody, IgG4, V domains shown, Fully human; used for IgG4 rows and where no isotype is printed; also called 9G8 IgG4) VH: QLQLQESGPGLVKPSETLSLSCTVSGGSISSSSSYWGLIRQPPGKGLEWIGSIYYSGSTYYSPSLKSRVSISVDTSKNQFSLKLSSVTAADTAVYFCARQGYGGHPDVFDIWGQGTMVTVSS VL: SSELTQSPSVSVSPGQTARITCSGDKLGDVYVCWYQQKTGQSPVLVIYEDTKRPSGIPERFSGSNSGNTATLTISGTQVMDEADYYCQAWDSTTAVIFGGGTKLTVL", "1.94e+06"),
    ("3A7 (antibody, IgG4, V domains shown, Fully human; also used where no isotype is printed) VH: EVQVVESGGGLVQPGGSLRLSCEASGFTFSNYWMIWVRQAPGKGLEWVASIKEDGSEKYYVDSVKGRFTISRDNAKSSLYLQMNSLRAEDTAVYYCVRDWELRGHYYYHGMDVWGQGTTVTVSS VL: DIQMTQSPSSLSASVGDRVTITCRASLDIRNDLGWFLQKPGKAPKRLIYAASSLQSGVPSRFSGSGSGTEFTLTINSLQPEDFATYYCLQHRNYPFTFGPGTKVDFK", "1.57e+06"),
]
